meta.source: patent US8772307B2

biological target: rat-species vanilloid receptor 1 (VR1/TRPV1) (Rattus norvegicus); construct: endogenous in cells; host or cells: primary cells dissociated from rat dorsal root ganglia (DRG); assay: Functional testing on vanilloid receptor 1 (VR1/TRPV1): FLIPR Ca2+ inflow assay in rat dorsal root ganglia cells (% activation / % inhibition vs capsaicin); format: cell-based; conditions: inhibition compared to 10 μM CP (capsaicin)
Mark yes for reported inhibition at 10 µM of 70% or greater; mark no for anything smaller.

Use these answered entries as a reference point.
>>> class_name("CC1CN(C(=O)Nc2ccc(C(F)(F)F)cc2)CCC12CC(c1ccccc1)=NO2 (centres unmarked) [Compound 385]")
"yes"
>>> class_name("CCc1ccc(NC(=O)N2CCC3(CC2)CC(c2ccccc2)=NO3)cc1 [Compound 163]")
"yes"
>>> class_name("FC(F)(F)c1cccc(NC(=S)N2CCC3(CC2)CC(c2ccccc2)=NO3)c1 [Compound 262]")
"no"
>>> class_name("CCc1ccc(NC(=O)N2CCC3(CC2)CC(c2ccc(Cl)cc2)=NO3)cc1 [Compound 164]")
"yes"
>>> class_name("CC(C)(C)c1ccc(/C=C/C(=O)N2CCC3(CC2)CC(c2cccc(F)c2)=NO3)cc1 [Compound 353]")
"yes"

QUERY: # bool: inhibition at 10 µM of CC(C)(C)c1ccc(/C(=C/C(=O)N2CCC3(CC2)CC(c2cccc(F)c2)=NO3)c2ccc(Cl)c(Cl)c2)cc1 [Compound 360] >= 70%
RESULT: yes

QUERY: # bool: inhibition at 10 µM of CCc1ccc(NC(=O)N2CCC3(CC2)CC(c2ccc(C(C)(C)C)cc2)=NO3)cc1 [Compound 165] >= 70%
RESULT: no

QUERY: # bool: inhibition at 10 µM of O=C(/C=C/c1ccc(C(F)(F)F)nc1N1CCCCC1)N1CCC2(CC1)CC(c1ccccc1)=NO2 [Compound 355] >= 70%
RESULT: yes

----------
Exercise: for every item that follows, state its recorded inhibition at 10 µM.
target: rat-species vanilloid receptor 1 (VR1/TRPV1) (Rattus norvegicus, UniProt O35433); construct: endogenous in cells; host or cells: primary cells dissociated from rat dorsal root ganglia (DRG); test: Functional testing on vanilloid receptor 1 (VR1/TRPV1): FLIPR Ca2+ inflow assay in rat dorsal root ganglia cells (% activation / % inhibition vs capsaicin); assay type: cell-based; details: inhibition compared to 10 μM CP (capsaicin)
Sequence (O35433 whole entry): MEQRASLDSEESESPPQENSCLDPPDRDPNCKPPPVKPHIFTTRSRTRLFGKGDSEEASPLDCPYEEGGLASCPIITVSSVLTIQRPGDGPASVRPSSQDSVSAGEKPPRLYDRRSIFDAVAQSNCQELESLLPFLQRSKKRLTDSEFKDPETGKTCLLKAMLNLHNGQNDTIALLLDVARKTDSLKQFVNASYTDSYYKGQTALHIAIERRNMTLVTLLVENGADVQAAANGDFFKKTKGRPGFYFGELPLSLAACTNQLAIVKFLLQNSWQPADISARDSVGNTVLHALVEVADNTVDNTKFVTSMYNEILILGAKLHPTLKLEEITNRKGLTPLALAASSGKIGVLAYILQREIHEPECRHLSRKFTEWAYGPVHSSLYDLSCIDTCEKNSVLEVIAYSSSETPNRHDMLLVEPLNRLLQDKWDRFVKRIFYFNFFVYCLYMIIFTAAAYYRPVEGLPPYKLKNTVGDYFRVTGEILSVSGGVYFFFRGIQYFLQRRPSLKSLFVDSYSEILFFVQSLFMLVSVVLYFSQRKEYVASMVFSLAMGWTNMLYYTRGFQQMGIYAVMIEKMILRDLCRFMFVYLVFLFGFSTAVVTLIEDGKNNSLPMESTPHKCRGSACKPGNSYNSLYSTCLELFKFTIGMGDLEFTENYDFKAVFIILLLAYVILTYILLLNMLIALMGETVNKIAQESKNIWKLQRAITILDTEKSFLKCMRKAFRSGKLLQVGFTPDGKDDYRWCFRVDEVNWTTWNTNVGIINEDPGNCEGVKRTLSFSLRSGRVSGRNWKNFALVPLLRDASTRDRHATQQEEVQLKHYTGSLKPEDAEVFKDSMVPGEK
Please answer using a numeric value trailed by its unit.

Worked set:
>>> result("O=C(/C=C/c1cccc(Br)c1)N1CCC2(CC1)CC(c1ccccc1)=NO2")
"62%"
>>> result("CCc1ccccc1NC(=O)N1CCC2(CC1)CC(c1cccc(OC)c1)=NO2")
"48.2%"
>>> result("CSc1ccc(NC(=O)N2CCC3(CC2)CC(c2ccc(C)cc2)=NO3)cc1")
"87.2%"
>>> result("COc1cccc(C2=NOC3(CCN(C(=O)Nc4cccc(SC)c4)CC3)C2)c1")
"48.6%"
>>> result("CC(C)(C)c1ccc(NC(=O)N2CCC3(CC2)CC(c2ccccc2F)=NO3)cc1")
"95%"

# map each compound to its inhibition at 10 µM
1. CC(C)(C)c1ccc(C(/C=C/c2ccccc2)=C/C(=O)N2CCC3(CC2)CC(c2cccc(F)c2)=NO3)cc1
2. COc1cccc(C2=NOC3(CCN(C(=O)Nc4ccc(SC)cc4)CC3)C2)c1
3. COc1ccccc1NC(=O)N1CCC2(CC1)CC(c1ccc(C(C)(C)C)cc1)=NO2

RESULT:
1. 95%
2. 80.5%
3. 54.2%

----------
biological target: UniProt Q8NER1; assay: Functional testing on vanilloid receptor (VR1): FLIPR Ca2+ inflow assay in CHO K1 cells stably transfected with the VR1 gene; settings: capsaicin (CAP) stimulus, average
TEST_READOUT: pIC50
Answers are plain numbers, as −log10 of the molar value.

Worked set:
>>> number("O=C(C=Cc1ccc(C(F)(F)F)cc1)N1CCC2(CC1)CC(c1ccccc1)=NO2")
6.08
>>> number("CC(C)(C)c1ccc(C=CC(=O)N2CCC3(CC2)CC(c2ccccc2)=NO3)cc1")
5.84
>>> number("COc1cccc(C2=NOC3(CCN(C(=O)/C=C/c4ccc(C(F)(F)F)nc4N4CCOCC4)CC3)C2)c1")
5.81

# map each molecule to its pIC50
1. CC(C)(C)c1ccc(C(/C=C/c2ccccc2)=C/C(=O)N2CCC3(CC2)CC(c2cccc(F)c2)=NO3)cc1
2. CC1CN(C(=O)Nc2ccc(C(C)(C)C)cc2)CCC12CC(c1ccccc1)=NO2 (stereo not shown)
3. O=C(/C=C/c1cccc(Br)c1)N1CCC2(CC1)CC(c1ccccc1)=NO2
4. CC(C)c1ccc(C=CC(=O)N2CCC3(CC2)CC(c2ccccc2)=NO3)cc1

RESULT:
1: 5.95; 2: 5.97; 3: 5.36; 4: 6.06

----------
molecular target: rat-species vanilloid receptor 1 (VR1/TRPV1) (Rattus norvegicus, UniProt O35433); construct: endogenous in cells; host or cells: primary cells dissociated from rat dorsal root ganglia (DRG); experiment: Functional testing on vanilloid receptor 1 (VR1/TRPV1): FLIPR Ca2+ inflow assay in rat dorsal root ganglia cells (% activation / % inhibition vs capsaicin); format: cell-based; settings: stimulation compared to 10 μM CP (capsaicin)
Exercise: for every item that follows, state its recorded activation at 10 µM.
Please answer using a numeric value trailed by its unit.

Worked set:
>>> result("CCc1ccc(NC(=O)N2CCC3(CC2)CC(c2ccc(C(C)(C)C)cc2)=NO3)cc1")
"-0.43%"
>>> result("O=C(/C=C/c1cccc(Br)c1)N1CCC2(CC1)CC(c1ccccc1)=NO2")
"0%"
>>> result("Cc1ccc(C2=NOC3(CCN(C(=O)Nc4cc(C(F)(F)F)ccc4Cl)CC3)C2)cc1")
"-0.47%"

Shifting focus to the compound that follows.
// sample O=C(Nc1ccc(C(F)(F)F)cc1)N1CCC2(CC1)CC(c1ccccc1)=NO2 , its activation at 10 µM was 0.33%

----------
target: vanilloid receptor (VR1) (Homo sapiens, UniProt Q8NER1); construct: expressed in transfected cells; host or cells: CHO K1 cells (ECACC), stably transfected; test: Functional testing on vanilloid receptor (VR1): FLIPR Ca2+ inflow assay in CHO K1 cells stably transfected with the VR1 gene; assay type: cell-based; conditions: CHO-K1, inhibition compared to 10 μM CP (capsaicin)
Sequence (Q8NER1 whole entry): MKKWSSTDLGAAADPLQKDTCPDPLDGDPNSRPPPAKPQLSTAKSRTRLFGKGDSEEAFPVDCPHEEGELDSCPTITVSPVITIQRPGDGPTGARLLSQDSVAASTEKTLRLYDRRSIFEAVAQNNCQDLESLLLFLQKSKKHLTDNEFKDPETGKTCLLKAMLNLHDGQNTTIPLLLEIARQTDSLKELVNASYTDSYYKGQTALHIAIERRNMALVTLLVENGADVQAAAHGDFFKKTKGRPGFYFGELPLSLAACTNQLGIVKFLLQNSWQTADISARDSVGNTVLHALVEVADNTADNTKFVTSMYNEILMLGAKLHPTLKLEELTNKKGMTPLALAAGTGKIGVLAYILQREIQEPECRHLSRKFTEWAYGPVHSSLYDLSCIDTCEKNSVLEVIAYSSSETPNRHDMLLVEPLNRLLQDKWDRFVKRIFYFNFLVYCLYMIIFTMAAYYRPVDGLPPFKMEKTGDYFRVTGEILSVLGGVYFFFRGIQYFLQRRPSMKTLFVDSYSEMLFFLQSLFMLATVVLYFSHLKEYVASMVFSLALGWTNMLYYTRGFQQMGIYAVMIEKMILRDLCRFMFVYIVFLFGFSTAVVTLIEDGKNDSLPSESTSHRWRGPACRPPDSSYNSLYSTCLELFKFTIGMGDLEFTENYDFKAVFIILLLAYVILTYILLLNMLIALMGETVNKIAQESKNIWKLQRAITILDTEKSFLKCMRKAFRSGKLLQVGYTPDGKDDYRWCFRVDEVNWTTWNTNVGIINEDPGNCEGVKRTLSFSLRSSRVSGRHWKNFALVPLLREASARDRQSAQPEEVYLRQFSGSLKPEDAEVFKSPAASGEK
TEST_READOUT: inhibition at 10 µM (%)
Give bare numbers, in %.

Worked set:
>>> number("Cc1ccc(C2=NOC3(CCN(C(=S)NC4CCCC4)CC3)C2)cc1")
-7.84
>>> number("CC(C)(C)c1ccc(NC(=O)N2CCC3(CC2)CC(c2ccc(Cl)cc2)=NO3)cc1")
-18.8
>>> number("CC(C)(C)c1ccc(NC(=O)N2CCC3(CC2)CC(c2ccccc2)=NO3)cc1")
20.4
>>> number("COc1cccc(C2=NOC3(CCN(C(=O)/C=C/c4ccc(C(F)(F)F)nc4N4CCOCC4)CC3)C2)c1")
53
>>> number("CSc1ccc(NC(=O)N2CCC3(CC2)CC(c2ccc(C)cc2)=NO3)cc1")
7.01
>>> number("CCc1ccc(NC(=O)N2CCC3(CC2)CC(c2ccccc2)=NO3)cc1")
-3.15
>>> number("COc1ccc(NC(=O)N2CCC3(CC2)CC(c2cccc(OC)c2)=NO3)cc1")
11.4
>>> number("CC1CN(C(=O)Nc2ccc(C(F)(F)F)cc2)CCC12CC(c1ccccc1)=NO2 (stereo not shown)")
18
>>> number("CC(C(=O)N1CCC2(CC1)CC(c1cccc(F)c1)=NO2)c1ccc(NS(C)(=O)=O)c(F)c1 (stereo not shown)")
-20

Shifting focus to the compound that follows.
Entry CC(C)(C)c1ccc(/C(=C/C(=O)N2CCC3(CC2)CC(c2cccc(F)c2)=NO3)c2ccc(Cl)c(Cl)c2)cc1 : inhibition at 10 µM on vanilloid receptor (VR1) (Homo sapiens, UniProt Q8NER1) = 12

----------
biological target: rat-species vanilloid receptor 1 (VR1/TRPV1) (Rattus norvegicus, UniProt O35433); construct: endogenous in cells; host or cells: primary cells dissociated from rat dorsal root ganglia (DRG); test: Functional testing on vanilloid receptor 1 (VR1/TRPV1): FLIPR Ca2+ inflow assay in rat dorsal root ganglia cells (% activation / % inhibition vs capsaicin); type: cell-based; conditions: inhibition compared to 10 μM CP (capsaicin)
Mark Met for reported inhibition at 10 µM of 50% or greater; mark Not met for anything smaller.

Use these answered entries as a reference point.
>>> class_name("O=C(Nc1ccccc1)N1CCC2(CC1)CC(c1ccc(Cl)cc1)=NO2")
"Not met"
>>> class_name("CC(C)c1ccc(NC(=O)N2CCC3(CC2)CC(c2ccc(Cl)cc2)=NO3)cc1")
"Not met"
>>> class_name("COc1cccc(C2=NOC3(CCN(C(=S)Nc4ccc(C(C)(C)C)cc4)CC3)C2)c1")
"Met"
>>> class_name("CC(C)(C)c1ccc(/C(=C/C(=O)N2CCC3(CC2)CC(c2ccccc2F)=NO3)c2ccc(Cl)c(Cl)c2)cc1")
"Met"
>>> class_name("COc1cccc(NC(=O)N2CCC3(CC2)CC(c2ccccc2)=NO3)c1")
"Not met"
>>> class_name("O=C(C#Cc1ccc(C(F)(F)F)cc1)N1CCC2(CC1)CC(c1ccccc1)=NO2")
"Met"

QUERY: # bool: inhibition at 10 µM of CC(C)(C)c1ccc(NC(=O)N2CCC3(CC2)CC(c2ccc(C(F)(F)F)cc2)=NO3)cc1 >= 50%
RESULT: Met

QUERY: # bool: inhibition at 10 µM of O=C(Nc1ccc(C(F)(F)F)cc1)N1CCC2(CC1)CC(c1ccc(Cl)cc1)=NO2 >= 50%
RESULT: Met

QUERY: # bool: inhibition at 10 µM of CC(C)c1ccc(NC(=O)N2CCC3(CC2)CC(c2ccc(C(C)(C)C)cc2)=NO3)cc1 >= 50%
RESULT: Met

QUERY: # bool: inhibition at 10 µM of O=C(Nc1ccc(C(F)(F)F)cc1)N1CCC2(CC1)CC(c1ccccc1)=NO2 >= 50%
RESULT: Met

QUERY: # bool: inhibition at 10 µM of CC1CN(C(=O)/C=C/c2ccc(C(F)(F)F)nc2N2CCCCC2)CCC12CC(c1ccccc1)=NO2 (centres unmarked) >= 50%
RESULT: Met

QUERY: # bool: inhibition at 10 µM of CC(C)(C)c1ccc(C=CC(=O)N2CCC3(CC2)CC(c2ccccc2)=NO3)cc1 >= 50%
RESULT: Met

QUERY: # bool: inhibition at 10 µM of COc1cccc(C2=NOC3(CCN(C(=O)/C=C/c4ccc(C(F)(F)F)nc4)CC3)C2)c1 >= 50%
RESULT: Not met
